Target: endothelin receptor (membrane of smooth muscle tissue of porcine aorta) (Sus scrofa, UniProt Q29010)
Construct: from tissue; host or cells: porcine aorta smooth muscle, membrane fraction
Sequence (Q29010 21-427): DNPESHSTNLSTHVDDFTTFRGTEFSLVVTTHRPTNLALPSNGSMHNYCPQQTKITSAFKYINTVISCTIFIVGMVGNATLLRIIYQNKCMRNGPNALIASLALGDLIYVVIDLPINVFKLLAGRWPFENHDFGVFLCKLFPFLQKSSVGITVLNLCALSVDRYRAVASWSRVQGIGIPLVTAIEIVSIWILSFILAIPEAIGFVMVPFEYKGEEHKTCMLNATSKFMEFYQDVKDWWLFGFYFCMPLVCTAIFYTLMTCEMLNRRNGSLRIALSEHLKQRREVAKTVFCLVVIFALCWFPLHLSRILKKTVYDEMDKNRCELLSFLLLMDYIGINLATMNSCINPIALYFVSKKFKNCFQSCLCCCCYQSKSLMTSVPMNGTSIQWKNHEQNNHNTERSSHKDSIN
Assay: Endothelin binding inhibition test (125I-endothelin-1, porcine aorta smooth muscle membrane)
Settings: 10 μM test compound (marked *); read-out: 125I-endothelin-1 binding inhibition
Square brackets hold non-standard residues; d marks the D form. Peptide text beside a SMILES is read from it. * marks the point of attachment. dNMeW = CN[C@H](Cc1c[nH]c2ccccc12)C(=O)O; Boc = CC(C)(C)OC(=O)*; OBn = c1ccc(CO*)cc1; βAla = NCCC(=O)O
Entries annotated with measured inhibition at 10 µM
Give the value in % but do not write % after it.

Example compounds with recorded inhibition at 10 µM:
{"compound": "CC(C)C[C@H](NC(=O)OC(C)(C)C)C(=O)N(C)[C@H](Cc1c[nH]c2ccccc12)C(=O)NCCC(=O)O [Compound 32] (Boc-Leu-[dNMeW]-[βAla]-OH)", "inhibition at 10 µM (%)": 32}
{"compound": "CC(C)C[C@H](NC(=O)OC(C)(C)C)C(=O)N[C@H](Cc1c[nH]c2ccccc12)C(=O)N[C@@H](CC(=O)OCc1ccccc1)C(N)=O [Compound 37] (Boc-Leu-[dW]-Asp(OBn)-NH2)", "inhibition at 10 µM (%)": 29}

-- ask Using the record for `CC(C)C[C@H](NC(=O)NN1CCCC1)C(=O)N[C@H](Cc1c[nH]c2ccccc12)C(=O)NCCC(=O)O` , report its inhibition at 10 µM.
-- reply 58

* * *

Molecular target: endothelin receptor (membrane of smooth muscle tissue of porcine aorta) (Sus scrofa, UniProt Q29010)
Construct: from tissue; host or cells: porcine aorta smooth muscle, membrane fraction
Assay: Endothelin binding inhibition test (125I-endothelin-1, porcine aorta smooth muscle membrane)
Conditions: 10 μM test compound (marked *); read-out: 125I-endothelin-1 binding inhibition
Numbered stars: 1 amine (or outer) side, 2 acyl side, 3 side chain; on linkers, the order of the positions; unused ones are H or OH. Square brackets hold non-standard residues; d marks the D form. Peptide text beside a SMILES is read from it. * marks the point of attachment. Boc = CC(C)(C)OC(=O)*; CO = O=C([*:1])[*:2]; Ahx = NCCCCCC(=O)O; βAla = NCCC(=O)O; NHiPr = CC(C)N*
assayReadout: inhibition at 10 µM
Respond with the figure and its unit, in that order.

Example compounds with recorded inhibition at 10 µM:
{"compound": "CC(C)C[C@H](NC(=O)NC(C)C)C(=O)N[C@H](Cc1c[nH]c2ccccc12)C(=O)NCC(=O)O [Compound 89] ({NHiPr-CO}-Leu-[dW]-Gly-OH)", "inhibition at 10 µM": "55%"}
{"compound": "COC(CNC(=O)[C@@H](Cc1c[nH]c2ccccc12)NC(=O)[C@H](CC(C)C)NC(=O)OC(C)(C)C)C(=O)O (stereo partly drawn) [Compound 146]", "inhibition at 10 µM": "70%"}
{"compound": "CC(C)C[C@H](NC(=O)OC(C)(C)C)C(=O)N[C@H](Cc1c[nH]c2ccccc12)C(=O)N[C@H](Cc1ccccc1)CS(=O)(=O)O [Compound 26]", "inhibition at 10 µM": "36%"}
{"compound": "CC(C)C[C@H](NC(=O)OC(C)(C)C)C(=O)N[C@H](Cc1c[nH]c2ccccc12)C(=O)NN(CC(=O)O)Cc1ccccc1 [Compound 149]", "inhibition at 10 µM": "58%"}
{"compound": "CC(C)C[C@H](NC(=S)Nc1ccccc1)C(=O)N[C@H](Cc1c[nH]c2ccccc12)C(=O)NCC(=O)O [Compound 91]", "inhibition at 10 µM": "51%"}

-- ask Using the record for CC(C)C[C@H](NC(=O)OC(C)(C)C)C(=O)N[C@H](Cc1c[nH]c2ccccc12)C(=O)NCCCCCC(=O)O [Compound 6] (Boc-Leu-[dW]-[Ahx]-OH) , report its inhibition at 10 µM.
-- reply 37%

-- ask Using the record for CC(C)C[C@H](NC(=O)OC(C)(C)C)C(=O)N[C@H](Cc1c[nH]c2ccccc12)C(=O)NNCC(=O)O [Compound 148] , report its inhibition at 10 µM.
-- reply 82%

-- ask Using the record for CC(C)C[C@H](NC(=O)N(C)C)C(=O)N[C@H](Cc1c[nH]c2ccccc12)C(=O)NCCC(=O)O [Compound 73] ({NMe2-CO}-Leu-[dW]-[βAla]-OH) , report its inhibition at 10 µM.
-- reply 61%

-- ask Using the record for Cc1nc[nH]c1CSC[C@@H](NC(=O)[C@@H](Cc1c[nH]c2ccccc12)NC(=O)[C@H](CC(C)C)NC(=O)OC(C)(C)C)C(=O)O [Compound 22] , report its inhibition at 10 µM.
-- reply 36%
